The origin of these recorded values is patent US10239843B2.

Exercise: for every item that follows, state its recorded log10(IC50).
- assayed_system: Human Full Length PARG (Homo sapiens (Human))
- experiment_summary: PARG enzyme assay (TR-FRET)
- Assay type: biochemical
- experimental_parameters: read-out: PARG Biochem IC50
Log scale reminder: IC50 in nM, then log10 taken.

Cn1cc(Cn2c(=O)c3cc(S(=O)(=O)NC4(C(F)F)CC4)ccc3n(Cc3ccc(F)cc3)c2=O)cn1    2.52
Cc1cc(Cn2c(=O)c3cc(S(=O)(=O)NC4(CF)CC4)ccc3n(Cc3sc(C)nc3C)c2=O)on1    1.23
Cn1cc(Cn2c(=O)c3cc(S(=O)(=O)NC4(CF)CC4)ccc3n(Cc3ccc(C#N)cc3)c2=O)cn1    1.76
Cc1cc(Cn2c(=O)c3cc(S(=O)(=O)NC4(CF)CC4)ccc3n(Cc3cc(C)nn3C)c2=O)on1    1.70
Cc1cc(Cn2c(=O)n(Cc3cnn(C)c3)c(=O)c3cc(S(=O)(=O)NC4(C#N)CC4)c(F)cc32)on1    1.85

State recorded log10(IC50) for all listed compounds.
1. CCn1c(=O)n(Cc2cnc(C)s2)c(=O)c2cc(S(=O)(=O)NC3(C#N)CC3)ccc21
2. Cc1cc(Cn2c(=O)n(Cc3nnc(C)s3)c(=O)c3cc(S(=O)(=O)NC4(C)CC4)ccc32)n(C)n1

1: 2.25; 2: 1.81

----------
Exercise: for every item that follows, state its recorded IC50.
- Test system: PARG in HeLa cell line
- experiment_summary: PARG cell assay (PAR chain immunofluorescence after MMS)
- Type: cell-based
- experimental_parameters: HeLa cells, MMS treatment; read-out: PARG Cell IC50
Answers are plain numbers, in nM.

Recorded results for 3 molecules are shown here.
COCCOCCn1c(=O)n(Cc2cnn(C)c2)c(=O)c2cc(S(=O)(=O)NC3(CF)CC3)ccc21 [Example 618]    325
CCCCn1c(=O)n(Cc2cc(C)no2)c(=O)c2cc(S(=O)(=O)NC3(CF)CC3)ccc21 [Example 536]    376
C#CC1(NS(=O)(=O)c2ccc3[nH]c(=O)n(Cc4cnn(C)c4)c(=O)c3c2)CC1 [Example 431]    3030

Could you now consider this next molecule?
Given COCCCn1c(=O)n(Cc2cc(C)no2)c(=O)c2cc(S(=O)(=O)NC3(CF)CC3)ccc21 [Example 525] , state its recorded IC50.
315

----------
- assayed_system: Human Full Length PARG (Homo sapiens (Human))
- experiment_summary: PARG enzyme assay (TR-FRET)
- Assay type: biochemical
- experimental_parameters: read-out: PARG Biochem IC50
measured_parameter: IC50 (µM)
Answers are plain numbers, in µM.

Cn1c(=O)n(CCC#N)c(=O)c2cc(S(=O)(=O)NC3(C)CC3)ccc21    2.71
Cn1cc(Cn2c(=O)c3cc(S(=O)(=O)NC4(C)CC4)ccc3n(CC3CC(F)(F)C3)c2=O)cn1    0.118
Cc1ncc(Cn2c(=O)c3cc(S(=O)(=O)NC4(C)CC4)ccc3n(C)c2=O)cn1    3.34

Given Cc1cc(Cn2c(=O)c3cc(S(=O)(=O)NC4(CF)CC4)ccc3n(Cc3nncn3C)c2=O)on1 , state its recorded IC50.
0.404

----------
- assayed_system: Human Full Length PARG (Homo sapiens (Human), UniProt Q86W56)
- Sequence (Q86W56 whole entry): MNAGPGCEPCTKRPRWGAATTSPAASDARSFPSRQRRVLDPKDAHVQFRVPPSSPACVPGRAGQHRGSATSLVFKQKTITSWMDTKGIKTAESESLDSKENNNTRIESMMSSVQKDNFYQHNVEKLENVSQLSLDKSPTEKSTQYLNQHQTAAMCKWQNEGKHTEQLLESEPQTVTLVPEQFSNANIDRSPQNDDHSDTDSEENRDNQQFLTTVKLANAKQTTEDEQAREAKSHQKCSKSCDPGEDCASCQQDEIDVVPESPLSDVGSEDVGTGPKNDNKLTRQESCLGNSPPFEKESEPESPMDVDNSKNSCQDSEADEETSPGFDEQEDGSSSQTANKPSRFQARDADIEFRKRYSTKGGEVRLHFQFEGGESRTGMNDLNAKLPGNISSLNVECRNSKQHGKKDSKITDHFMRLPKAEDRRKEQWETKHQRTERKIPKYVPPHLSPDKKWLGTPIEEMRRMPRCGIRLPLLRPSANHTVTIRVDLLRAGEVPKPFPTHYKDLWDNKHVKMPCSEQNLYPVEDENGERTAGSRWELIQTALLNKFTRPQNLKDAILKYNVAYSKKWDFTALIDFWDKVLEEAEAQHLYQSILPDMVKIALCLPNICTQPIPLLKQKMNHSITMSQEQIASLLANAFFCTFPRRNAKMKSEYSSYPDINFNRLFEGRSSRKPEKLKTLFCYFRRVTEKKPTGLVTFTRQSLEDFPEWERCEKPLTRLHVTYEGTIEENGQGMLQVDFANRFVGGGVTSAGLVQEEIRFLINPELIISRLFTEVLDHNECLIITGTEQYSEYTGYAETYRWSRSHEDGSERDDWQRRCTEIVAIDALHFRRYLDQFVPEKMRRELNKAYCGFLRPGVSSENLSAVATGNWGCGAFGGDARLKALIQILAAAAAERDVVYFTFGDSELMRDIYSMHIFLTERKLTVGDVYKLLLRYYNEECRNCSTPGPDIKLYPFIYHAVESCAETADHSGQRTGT
- experiment_summary: PARG enzyme assay (TR-FRET)
- Assay type: biochemical
- experimental_parameters: read-out: PARG Biochem IC50 Geomean
measured_parameter: pIC50
Give bare numbers, as −log10 of the molar value.

Cn1nc(C(C)(C)C)cc1Cn1c(=O)n(C)c(=O)c2cc(S(=O)(=O)NC3(C)CC3)ccc21    6.53
Cc1csc(Cn2c(=O)c3cc(S(=O)(=O)NC4(C)CC4)ccc3n(C)c2=O)n1    5.32
Cc1cc(Cn2c(=O)c3cc(S(=O)(=O)NC4(C)CC4)ccc3n(CC3CCC3)c2=O)on1    6.76

State recorded pIC50 for all listed compounds.
1. Cn1cc(Cn2c(=O)c3cc(S(=O)(=O)NC4(C)CC4)ccc3n(CC3CCO3)c2=O)cn1 (stereo not shown)
2. Cc1cc(Cn2c(=O)c3cc(S(=O)(=O)NC4(C)CC4)ccc3n(CC3COC3)c2=O)on1
3. Cn1c(=O)c2cc(S(=O)(=O)NC3(C)CC3)ccc2n(Cc2noc(C(N)=O)n2)c1=O
4. Cc1cc(Cn2c(=O)n(Cc3cnn(C)c3)c(=O)c3cc(S(=O)(=O)NC4(C)CC4)c(F)cc32)on1

1: 6.71; 2: 6.47; 3: 6.12; 4: 7.62

State recorded pIC50 for all listed compounds.
1. COCCCn1c(=O)n(Cc2cc(C)no2)c(=O)c2cc(S(=O)(=O)NC3(C)CC3)ccc21
2. Cc1cc(Cn2nc(OC3COC3)c3ccc(S(=O)(=O)NC4(C)CC4)cc3c2=O)on1
3. CC(C)Cn1c(=O)n(Cc2cnn(C)c2)c(=O)c2cc(S(=O)(=O)NC3(C)CC3)ccc21
4. C#CCn1c(=O)n(Cc2c(C)noc2C)c(=O)c2cc(S(=O)(=O)NC3(C)CC3)ccc21
5. COCCCn1c(=O)n(Cc2cnn(C)c2)c(=O)c2cc(S(=O)(=O)NC3(C)CC3)ccc21
6. Cc1cc(Cn2nc(C3CCCC3)c3ccc(S(=O)(=O)NC4(C)CC4)cc3c2=O)on1

6.41
6.31
7.15
6.96
6.68
5.60

State recorded pIC50 for all listed compounds.
1. Cn1c(=O)n(Cc2cnn(CC3CC3)c2)c(=O)c2cc(S(=O)(=O)NC3(C)CC3)ccc21
2. CCn1c(=O)c2cc(S(=O)(=O)NC3(C#N)CC3)ccc2n(CC)c1=O
3. Cn1c(=O)c2cc(S(=O)(=O)NC3(C)CC3)ccc2n(CC(=O)c2ccc(N3CCCC3)cc2)c1=O

1: 6.17; 2: 5.74; 3: 5.32
